method notes: in vivo
Parameters: species or system mouse
particulars: mouse, in vivo, iv, 250 mg/kg, 5 min; mice, 250 mg/kg iv; read-out: Ratio: % B/S
measure name: Kp at 5 min
Provide a numeric answer; units are not to be included.

What value of Kp at 5 min has been reported for the following molecule? "[N-]=[N+]=N[C@H]1C[C@H](n2ccc(=O)[nH]c2=O)O[C@@H]1CO" 0.043

* * *

method notes: in vivo
Design: species or system mouse
particulars: mouse, in vivo, iv, 250 mg/kg, 71 min; mice, 250 mg/kg iv; read-out: Brain levels
measure name: concentration at 71 min (ng/mL)
Number in ng/mL, nothing else.

Recorded concentration at 71 min of "[N-]=[N+]=N[C@H]1C[C@H](n2ccc(=O)[nH]c2=O)O[C@@H]1CO" , please. 6400
